These measurements were taken from patent US6355799B1.

Tested on: large crabgrass (Digitaria sanguinalis, DIGSA)
Test: Pre-emerge test, greenhouse herbicide activity screening
Type: in vivo
Conditions: 250 g ai/ha; phytotoxicity rating 0-100, 14 days after application
Label rule, in plain words: Pre-emerge Herbicidal Activity DIGSA of 30 and up is class 1, under 30 is class 0.

A selection of reference data follows.
COc1c(Cl)cc(F)c(-n2c(=O)cc(C(F)(F)F)n(C)c2=O)c1NC(=O)OCc1ccc(Cl)c(Cl)c1 [4-32]    class 1
CCc1ccc(COC(=O)Nc2c(OC)c(Cl)cc(F)c2-n2c(=O)cc(C(F)(F)F)n(C)c2=O)cc1 [4-31]    class 1
COc1c(Cl)cc(F)c(-n2c(=O)cc(C(F)(F)F)n(C)c2=O)c1NC(=O)OCc1cc(C)ccc1C [4-38]    class 1
Cn1c(C(F)(F)F)cc(=O)n(-c2ccc(Cl)cc2NC(=O)OCc2ccccc2F)c1=O [4-49]    class 1
COc1c(Cl)cc(F)c(-n2c(=O)cc(C(F)(F)F)n(C)c2=O)c1NC(=O)Nc1ccccc1 [Compound 3-4]    class 0

Would you say Cc1c(Cl)cc(F)c(-n2c(=O)cc(C(F)(F)F)n(C)c2=O)c1NC(=O)OCc1ccccc1Cl [4-54] shows Pre-emerge Herbicidal Activity DIGSA at minimum 30?
class 1

Would you say Cn1c(C(F)(F)F)cc(=O)n(-c2c(F)cc(Cl)c(OCC#N)c2NC(=O)OCc2ccccc2)c1=O [4-23] shows Pre-emerge Herbicidal Activity DIGSA at minimum 30?
class 1

Would you say Cn1c(C(F)(F)F)cc(=O)n(-c2c(F)cc(Cl)c(O)c2NC(=O)c2ccc3ccccc3c2)c1=O [Compound 2-194] shows Pre-emerge Herbicidal Activity DIGSA at minimum 30?
class 0

Would you say Cn1c(C(F)(F)F)cc(=O)n(-c2c(F)cc(Cl)c(OCC#N)c2NC(=O)c2ccc3ccccc3c2)c1=O [2-200] shows Pre-emerge Herbicidal Activity DIGSA at minimum 30?
class 1

Would you say Cn1c(C(F)(F)F)cc(=O)n(-c2ccc(C(N)=S)cc2NC(=O)c2ccc3ccccc3c2)c1=O [2-205] shows Pre-emerge Herbicidal Activity DIGSA at minimum 30?
class 1

Would you say COc1c(Cl)cc(F)c(-n2c(=O)cc(C(F)(F)F)n(C)c2=O)c1NC(=O)OCc1ccc2c(c1)OCO2 [4-41] shows Pre-emerge Herbicidal Activity DIGSA at minimum 30?
class 1
